Quick reference for Ki among some molecules
- target_desc: GCN2 kinase (Homo sapiens, UniProt Q9P2K8)
- Sequence (Q9P2K8 whole entry): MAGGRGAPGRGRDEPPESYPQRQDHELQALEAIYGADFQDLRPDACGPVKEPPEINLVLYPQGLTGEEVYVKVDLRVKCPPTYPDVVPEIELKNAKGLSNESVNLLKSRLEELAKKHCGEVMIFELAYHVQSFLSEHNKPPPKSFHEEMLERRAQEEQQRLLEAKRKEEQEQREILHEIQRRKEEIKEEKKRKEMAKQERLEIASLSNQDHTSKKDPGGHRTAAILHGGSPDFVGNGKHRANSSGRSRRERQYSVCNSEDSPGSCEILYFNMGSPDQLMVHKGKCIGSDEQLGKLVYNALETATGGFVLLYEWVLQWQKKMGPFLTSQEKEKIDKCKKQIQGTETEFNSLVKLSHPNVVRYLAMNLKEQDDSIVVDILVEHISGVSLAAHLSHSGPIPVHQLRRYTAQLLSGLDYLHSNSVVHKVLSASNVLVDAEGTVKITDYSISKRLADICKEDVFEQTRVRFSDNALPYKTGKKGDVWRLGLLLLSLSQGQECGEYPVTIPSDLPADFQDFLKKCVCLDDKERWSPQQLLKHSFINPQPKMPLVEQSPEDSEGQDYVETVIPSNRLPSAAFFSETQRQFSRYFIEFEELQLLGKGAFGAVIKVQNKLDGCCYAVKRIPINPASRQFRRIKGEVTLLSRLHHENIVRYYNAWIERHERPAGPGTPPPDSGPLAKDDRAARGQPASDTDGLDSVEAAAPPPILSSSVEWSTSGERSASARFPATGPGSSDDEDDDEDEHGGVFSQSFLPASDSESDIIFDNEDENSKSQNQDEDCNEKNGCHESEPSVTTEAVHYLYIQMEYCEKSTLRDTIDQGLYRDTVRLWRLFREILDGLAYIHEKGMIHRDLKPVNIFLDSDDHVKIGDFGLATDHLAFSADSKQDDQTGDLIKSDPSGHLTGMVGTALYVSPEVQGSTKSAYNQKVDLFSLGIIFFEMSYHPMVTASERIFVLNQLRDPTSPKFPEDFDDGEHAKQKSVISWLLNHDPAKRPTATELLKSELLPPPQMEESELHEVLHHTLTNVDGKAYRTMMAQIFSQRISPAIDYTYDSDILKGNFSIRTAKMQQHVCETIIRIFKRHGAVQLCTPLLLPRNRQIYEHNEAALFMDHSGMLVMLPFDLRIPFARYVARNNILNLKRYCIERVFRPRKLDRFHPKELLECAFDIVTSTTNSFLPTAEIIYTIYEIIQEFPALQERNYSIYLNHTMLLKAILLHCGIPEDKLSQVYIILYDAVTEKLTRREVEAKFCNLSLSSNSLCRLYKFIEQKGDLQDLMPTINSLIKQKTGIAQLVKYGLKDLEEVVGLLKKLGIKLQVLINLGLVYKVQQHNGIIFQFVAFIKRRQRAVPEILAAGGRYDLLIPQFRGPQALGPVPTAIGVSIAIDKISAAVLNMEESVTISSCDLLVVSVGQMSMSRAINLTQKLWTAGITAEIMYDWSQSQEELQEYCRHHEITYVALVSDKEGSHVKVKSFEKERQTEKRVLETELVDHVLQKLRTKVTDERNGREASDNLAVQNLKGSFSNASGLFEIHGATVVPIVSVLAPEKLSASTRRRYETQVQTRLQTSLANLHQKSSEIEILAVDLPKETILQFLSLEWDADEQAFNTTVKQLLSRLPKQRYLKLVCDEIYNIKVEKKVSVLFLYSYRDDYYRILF
- measurement_protocol: GCN2 enzyme inhibition assay (Transcreener ADP2 fluorescence polarization)
- Type: biochemical
- condition_parameters: compounds of Formula II; 280 μM ATP, 4 nM GCN2 kinase

• CS(=O)(=O)C1CCCN(c2cc(-c3cnc4ccc(C(F)(F)F)nn34)ccn2)C1 (stereo not shown) [II-228] = 10 to 1000 nM
• O=S(=O)(N[C@H]1CCCN(c2cc(-c3cnc4ccc(C(F)F)nn34)ncn2)C1)C1CC1 [II-442] = 10 to 1000 nM
• CC1C(CN=S(C)(C)=O)CCCN1c1cc(-c2cnc3ccc(C(F)F)nn23)ncn1 (stereo not shown) [II-583] = > 1000 nM
• COCCOC1CC(CNS(C)(=O)=O)CN(c2cc(-c3cnc4ccc(C(F)F)nn34)ncn2)C1 (stereo not shown) [II-549] = 10 to 1000 nM
• CS(=O)(=O)CCC1CCCN(c2cc(-c3cnc4ccc(C(F)F)nn34)ccn2)C1 (stereo not shown) [II-128] = 10 to 1000 nM
• CC1(O)CC(CNS(C)(=O)=O)CN(c2cc(-c3cnc4ccc(C(F)F)nn34)ncn2)C1 (single isomer, unassigned) [II-5] = 10 to 1000 nM
• COCCNc1cc(-c2cnc3ccc(C(F)F)nn23)cc(N2CCCC(CNS(C)(=O)=O)C2)n1 (stereo not shown) [II-89] = < 10 nM
• OCCC1CCCN(c2cc(-c3cnc4ccc(C(F)F)nn34)ncn2)C1 (stereo not shown) [II-497] = 10 to 1000 nM
• OCC1CN(c2cc(-c3cnc4ccc(C(F)(F)F)nn34)ncn2)CCO1 (stereo not shown) [II-518] = 10 to 1000 nM
• O=C(O)[C@H]1CCCN(c2cc(-c3cnc4ccc(C(F)F)nn34)ncn2)C1 [II-505] = 10 to 1000 nM

The record that follows has no Ki shown yet.
Req: Need Ki of CS(=O)(=O)NCC1CCCN(c2cc(-c3cnc4ccc(C(F)F)nn34)cc(N3CCOCC3)n2)C1 (stereo not shown) [II-66] , thanks.
Resp: < 10 nM

###

Quick reference for Ki among some compounds
- target_desc: GCN2 kinase (Homo sapiens)
- measurement_protocol: GCN2 enzyme inhibition assay (Transcreener ADP2 fluorescence polarization)
- Format: biochemical
- condition_parameters: Enzyme activity for compounds of Formula IV; Ki(app), 280 μM ATP, 25° C.

- C[C@H]1[C@@H](c2cn[nH]c2)OCCN1c1ccnc(-c2cnc3cnc(C(F)(F)F)cn23)n1 (racemic) [IV-215]: 10 to 100 nM
- OC1CCCN(c2ccnc(-c3cnc4cnc(C(F)(F)F)cn34)n2)C1 (stereo not drawn) [IV-437]: 100 to 1000 nM

The record that follows has no Ki shown yet.
Req: Need Ki of CC1CN(c2ccnc(-c3cnc4cnc(C#N)cn34)n2)C(C)C(c2cn[nH]c2)N1 (single isomer, unassigned) [IV-314] , thanks.
Resp: < 10 nM

###

- target_desc: intracellular GCN2 (phosphorylation of the GCN2 substrate eIF2α) (Homo sapiens)
- Sequence (Q9P2K8 whole entry): as above
- measurement_protocol: GCN2 cellular inhibition assay (AlphaScreen SureFire P-eIF2α Ser51, borrelidin-treated U2OS cells)
- Assay type: cell-based
- condition_parameters: compounds of Formula IV; biomarker assay, phosphorylated eIF2α Ser51 in borrelidin-treated U2OS cells
Quick reference for IC50 among some compounds

Observe how each entry below is paired with its result.
* NC1CCCN(c2ccnc(-c3cnc4cnc(C(F)F)cn34)n2)CC1 (stereo not drawn) | > 5 µM
* CS(C)(=O)=N[C@@H]1C[C@@H](c2cn[nH]c2)CN(c2ccnc(-c3cnc4cnc(C(F)(F)F)cn34)n2)C1 (racemic) | > 5 µM
* Cc1cc(N2CCC(c3cn[nH]c3)C2)nc(-c2cnc3cnc(C(F)(F)F)cn23)n1 (stereo not drawn) | 0.5 to 5 µM
* O=S(=O)(C1CCCN(c2ccnc(-c3cnc4cnc(C(F)F)cn34)n2)C1)N1CCOCC1 (stereo not drawn) | > 5 µM
* FC(F)(F)c1cn2c(-c3nccc(N4CCCOCC4)n3)cnc2cn1 | > 5 µM
* FC(F)c1cn2c(-c3nccc(N4CCCC(c5cn[nH]c5)C4)n3)cnc2cn1 (stereo not drawn) | 0.5 to 5 µM

Req: Need IC50 of FC(F)(F)c1cn2c(-c3nccc(N4CCC(c5c[nH]nc5C5CC5)C4)n3)cnc2cn1 (stereo not drawn) , thanks.
Resp: 0.5 to 5 µM

Req: Need IC50 of CS(=O)(=O)N1CCC2(CCN(c3ccnc(-c4cnc5cnc(C(F)F)cn45)n3)C2)CC1 , thanks.
Resp: > 5 µM

Req: Need IC50 of CC1CN(c2nccc(-c3cnc4cnc(C(F)(F)F)cn34)n2)C(C)C(c2cn[nH]c2)N1 (single isomer, unassigned) , thanks.
Resp: 0.5 to 5 µM

Req: Need IC50 of CC1CC(C(N)=O)C(C)N(c2ccnc(-c3cnc4cnc(C(F)(F)F)cn34)n2)C1 (single isomer, unassigned) , thanks.
Resp: 0.5 to 5 µM

Req: Need IC50 of CC1CN(c2ccnc(-c3cnc4cnc(C(F)(F)F)cn34)n2)C(C)C(c2ccc(=O)[nH]c2)N1 (stereo not drawn) , thanks.
Resp: 0.5 to 5 µM

Req: Need IC50 of Cc1cc(N2CC(C)NC(c3cn[nH]c3)C2C)nc(-c2cnc3cnc(C(F)(F)F)cn23)n1 (stereo not drawn) [IV-627] , thanks.
Resp: 0.5 to 5 µM

###

- target_desc: GCN2 kinase (Homo sapiens)
- measurement_protocol: GCN2 enzyme inhibition assay (Transcreener ADP2 fluorescence polarization)
- Format: biochemical
- condition_parameters: Enzyme activity for compounds of Formula IV; Ki(app), 280 μM ATP, 25° C.
measurement_label: Ki

Observe how each entry below is paired with its result.
• CS(=O)(=O)NC1CCCN(c2ccnc(-c3cnc4cnc(C(F)F)cn34)n2)CC1 (centres unmarked) = 100 to 1000 nM
• N#CC1CCN(c2ccnc(-c3cnc4cnc(C(F)(F)F)cn34)n2)CC1 = 100 to 1000 nM
• CC(C)(O)C1CC(c2cn[nH]c2)CN(c2ccnc(-c3cnc4cnc(C(F)(F)F)cn34)n2)C1 (single isomer, unassigned) [IV-683] = 10 to 100 nM
• CC1C(c2cn[nH]c2)CC(P(C)(C)=O)CN1c1ccnc(-c2cnc3cnc(C(F)(F)F)cn23)n1 (centres unmarked) [IV-693] = 10 to 100 nM
• CCN1C(C)CN(c2ccnc(-c3cnc4cnc(C(F)(F)F)cn34)n2)C(C)C1c1cn[nH]c1 (centres unmarked) [IV-292] = < 10 nM
• C[C@H]1NCCN(c2ccnc(-c3cnc4cnc(C(F)(F)F)cn34)n2)[C@H]1c1cn[nH]c1 (relative stereo) = 10 to 100 nM

Req: Need Ki of NS(=O)(=O)N[C@H]1CCCN(c2ccnc(-c3cnc4cnc(C(F)F)cn34)n2)C1 , thanks.
Resp: 100 to 1000 nM

Req: Need Ki of CC(=O)N1CCN(c2cccc(-c3cnc4cnc(C(N)=O)cn34)n2)CC1 , thanks.
Resp: 10 to 100 nM

###

- target_desc: intracellular GCN2 (phosphorylation of the GCN2 substrate eIF2α) (Homo sapiens)
- measurement_protocol: GCN2 cellular inhibition assay (AlphaScreen SureFire P-eIF2α Ser51, borrelidin-treated U2OS cells)
- Assay type: cell-based
- condition_parameters: compounds of Formula IV; biomarker assay, phosphorylated eIF2α Ser51 in borrelidin-treated U2OS cells
pIC50: −log10 of the molar value.
measurement_label: pIC50

Observe how each entry below is paired with its result.
• CC(=O)N1CCN(c2cncc(-c3cnc4cnc(C(N)=O)cn34)n2)CC1 = < 5.30
• CC1CN(c2nccc(-c3cnc4cnc(C(F)(F)F)cn34)n2)CC(c2cn[nH]c2)O1 (single isomer, unassigned) [IV-199] = 5.30 to 6.30

The record that follows has no pIC50 shown yet.
Req: Need pIC50 of FC(F)c1cn2c(-c3nccc(N4CCCC5CC54)n3)cnc2cn1 (stereo not drawn) , thanks.
Resp: < 5.30

###

Quick reference for pKi among some molecules
- target_desc: UniProtKB Q9P2K8
- measurement_protocol: GCN2 enzyme inhibition assay (Transcreener ADP2 fluorescence polarization)
- Format: biochemical
- condition_parameters: Enzyme activity for compounds of Formula IV; Ki(app), 280 μM ATP, 25° C.
pKi: −log10 of the molar value.

Observe how each entry below is paired with its result.
• N[C@H]1CCCN(c2ccnc(-c3cnc4cnc(C(F)(F)F)cn34)n2)C1 = < 6.00
• CC1C(c2cn[nH]c2)OCCN1c1ccnc(-c2cnc3cnc(C(F)(F)F)cn23)n1 (stereo not shown) [IV-218] = 7.00 to 8.00
• OC1(c2cn[nH]c2)CCCN(c2ccnc(-c3cnc4cnc(C(F)(F)F)cn34)n2)C1 (stereo not shown) = 7.00 to 8.00

The record that follows has no pKi shown yet.
Req: Need pKi of Cc1n[nH]c(C)c1C1CCCN(c2ccnc(-c3cnc4cnc(C(F)(F)F)cn34)n2)C1 (single isomer, unassigned) [IV-476] , thanks.
Resp: > 8.00
